Measured 473-nm Δτ, Repeat 1, listed per entry for reference.
# Test system: FMAL-actin plus TMR-cC0-C2
# ASSAY_EXPLANATION: Selleck library HTS, 473 nm excitation (FLT of FMAL-actin with TMR-cC0-C2, FLT-FRET)
# Format: binding, human
# CONDITION_SET: initial screen, 30 μM compound
Where a name gives a salt, the structure may show the parent alone.
ASSAY_METRIC: 473-nm Δτ, Repeat 1 (ns)

>>> quantitative_readout("COc1cc2nc(N3CCN(C(=O)C4COc5ccccc5O4)CC3)nc(N)c2cc1OC (stereo not drawn)")
-0.266
>>> quantitative_readout("O=c1cc(-c2ccc(O)c(O)c2)oc2cc(O)cc(O)c12")
-0.309
>>> quantitative_readout("CO/N=C(\\C(=O)N[C@@H]1C(=O)N2C(C(=O)O)=C(C[N+]3(C)CCCC3)CS[C@H]12)c1csc(N)n1 [Cefepime dihydrochloride monohydrate]")
0.127
>>> quantitative_readout("COc1nc2ccc(Br)cc2cc1[C@@H](c1ccccc1)[C@@](O)(CCN(C)C)c1cccc2ccccc12.O=C(O)/C=C/C(=O)O [Bedaquiline fumarate]")
-0.324
>>> quantitative_readout("CC1(C)S[C@@H]2[C@H](NC(=O)[C@H](N)c3ccccc3)C(=O)N2[C@H]1C(=O)O [Ampicillin sodium]")
0.184
>>> quantitative_readout("Cc1cnc(C(=O)N[C@H]2CCCCC/C=C\\[C@@H]3C[C@@]3(C(=O)NS(=O)(=O)C3CC3)NC(=O)[C@@H]3C[C@@H](Oc4nc5ccccc5c5ccccc45)CN3C2=O)cn1")
0.115

* * *

# Tested on: TMR-cC0-C2 (C0-C2 fragment of human cMyBP-C)
# ASSAY_EXPLANATION: FLT-TMR concentration-response assay (FLT of TMR on cC0-C2, no actin)
# Type: binding
# CONDITION_SET: 60 μM compound
*1 amine or outer side, *2 acyl side, *3 side chain or, on linkers, in order; H or OH if unused. Where a SMILES comes first, the peptide text is derived from it. Bridges are numbered along the chain shown (N, C = ends). [ ]: non-standard residue; d: D form. The star is where a group is joined. pTerphenylCO(4''-OnC5H11) = CCCCCOc1ccc(-c2ccc(-c3ccc(C(=O)*)cc3)cc2)cc1; Orn(4R-OH,5R-OH) = O=C([C@H](C[C@@H](O)[C@@H](O)N[*:3])N[*:1])[*:2]; Tetradecanoyl(10R,12S-Me2) = CC[C@H](C)C[C@H](C)CCCCCCCCC(=O)*; hTyr(3S-OH,4S-OH) = N[C@H](C(=O)O)[C@H](O)[C@@H](O)c1ccc(O)cc1; Pro(3S-OH,4S-Me) = C[C@H]1CN[C@H](C(=O)O)[C@H]1O; Gln(3R-OH) = NC(=O)C[C@@H](O)[C@H](N)C(=O)O; Pro(3S-OH) = O=C(O)[C@H]1NCC[C@@H]1O; Hyp = O=C(O)[C@@H]1C[C@@H](O)CN1
ASSAY_METRIC: cC0-C2 FLT change (% change from DMSO, FLT of TMR-MyBP-C) (%)

>>> quantitative_readout("CC1(C)CCC(C)(C)c2cc(NC(=O)c3ccc(C(=O)O)cc3)ccc21")
5.2
>>> quantitative_readout("CCCCCOc1ccc(-c2ccc(-c3ccc(C(=O)N[C@H]4C[C@@H](O)[C@@H](O)NC(=O)[C@@H]5[C@@H](O)[C@@H](C)CN5C(=O)[C@H]([C@@H](C)O)NC(=O)[C@H]([C@H](O)[C@@H](O)c5ccc(O)cc5)NC(=O)[C@@H]5C[C@@H](O)CN5C(=O)[C@H]([C@@H](C)O)NC4=O)cc3)cc2)cc1 [Anidulafungin] ({pTerphenylCO(4''-OnC5H11)}-[Orn(4R-OH,5R-OH)]T[Hyp][hTyr(3S-OH,4S-OH)]T[Pro(3S-OH,4S-Me)]; lactam 1-C)")
32.1
>>> quantitative_readout("NC(=O)c1cc[n+](CC2=C(C(=O)O)N3C(=O)[C@@H](NC(=O)[C@@H](c4ccccc4)S(=O)(=O)[O-])[C@H]3SC2)cc1 [Cefsulodin sodium]")
9.1
>>> quantitative_readout("COc1nc2ccc(Br)cc2cc1[C@@H](c1ccccc1)[C@@](O)(CCN(C)C)c1cccc2ccccc12.O=C(O)/C=C/C(=O)O [Bedaquiline fumarate]")
"−4.5"
>>> quantitative_readout("O=C(Nc1ccc(Cl)cc1)Nc1ccc(Cl)c(Cl)c1")
11.6
>>> quantitative_readout("O=C(O)[C@H]1O[C@@H](Oc2cc3oc(-c4ccc(O)cc4)cc(=O)c3c(O)c2O)[C@H](O)[C@@H](O)[C@@H]1O")
"−9.1"
>>> quantitative_readout("Cc1cnc(C(=O)N[C@H]2CCCCC/C=C\\[C@@H]3C[C@@]3(C(=O)NS(=O)(=O)C3CC3)NC(=O)[C@@H]3C[C@@H](Oc4nc5ccccc5c5ccccc45)CN3C2=O)cn1")
23.8
>>> quantitative_readout("CC[C@H](C)C[C@H](C)CCCCCCCCC(=O)N[C@H]1C[C@@H](O)[C@@H](O)NC(=O)[C@@H]2[C@@H](O)CCN2C(=O)[C@H]([C@H](O)CC(N)=O)NC(=O)[C@H]([C@H](O)[C@@H](O)c2ccc(O)cc2)NC(=O)[C@@H]2C[C@@H](O)CN2C(=O)[C@H]([C@@H](C)O)NC1=O [Pneumocandin B0] ({Tetradecanoyl(10R,12S-Me2)}-[Orn(4R-OH,5R-OH)]T[Hyp][hTyr(3S-OH,4S-OH)][Gln(3R-OH)][Pro(3S-OH)]; lactam 1-C)")
12.4
>>> quantitative_readout("C[C@@H]1O[C@@H](O[C@H]2[C@H](O[C@H]3CC[C@@]4(C)[C@@H](CC[C@]5(C)[C@@H]4CC=C4[C@@H]6CC(C)(C)CC[C@]6(C(=O)O)CC[C@]45C)[C@]3(C)CO)OC[C@H](O)[C@@H]2O)[C@H](O)[C@H](O)[C@H]1O")
6.7

* * *

# Test system: TMR-cC0-C2
# ASSAY_EXPLANATION: Selleck library HTS, 532 nm excitation (FLT of TMR-cC0-C2 in presence of FMAL-actin)
# Type: binding, human
# CONDITION_SET: initial screen, 30 μM compound
Strictly below -0.001 ns in 532-nm Δτ, Repeat 1: 1.0. Otherwise: 0.0.

>>> discrete_label("Cc1cnc(C(=O)N[C@H]2CCCCC/C=C\\[C@@H]3C[C@@]3(C(=O)NS(=O)(=O)C3CC3)NC(=O)[C@@H]3C[C@@H](Oc4nc5ccccc5c5ccccc45)CN3C2=O)cn1")
0.0
>>> discrete_label("CONC(=O)Nc1ccc(-c2sc3c(c2CN(C)C)c(=O)n(-c2ccc(OC)nn2)c(=O)n3Cc2c(F)cccc2F)cc1")
1.0
>>> discrete_label("CCC(C)(Oc1ccc(C2(c3ccc(OC(C)(CC)C(=O)O)cc3)CCCCC2)cc1)C(=O)O (centres unmarked) [Clinofibrate]")
0.0
>>> discrete_label("O=C(O)[C@H]1O[C@@H](Oc2cc3oc(-c4ccc(O)cc4)cc(=O)c3c(O)c2O)[C@H](O)[C@@H](O)[C@@H]1O")
1.0
>>> discrete_label("Cc1ccc(NC(=O)c2ccc(CN3CCN(C)CC3)cc2)cc1Nc1nc(-c2cccnc2)cs1")
1.0
>>> discrete_label("CCC(=O)O[C@H]1[C@H](O[C@@H]2[C@@H](C)[C@H](O[C@H]3C[C@@](C)(OC)[C@@H](O)[C@H](C)O3)[C@@H](C)C(=O)O[C@H](CC)[C@@](C)(O)[C@H](O)[C@@H](C)C(=O)[C@H](C)C[C@@]2(C)O)O[C@H](C)C[C@@H]1N(C)C [Erythromycin estolate]")
0.0
>>> discrete_label("Cc1nc(-c2ccc(OCC(C)C)c(C#N)c2)sc1C(=O)O")
0.0

* * *

# Test system: FMAL-actin plus TMR-cC0-C2
# ASSAY_EXPLANATION: Selleck library HTS, 473 nm excitation (FLT of FMAL-actin with TMR-cC0-C2, FLT-FRET)
# Assay type: binding, human
# CONDITION_SET: initial screen, 30 μM compound
# Protocol: Fluorescence lifetime (FLT) measurements were acquired using a high-throughput FLT plate reader (Fluorescence Innovations, Inc) ([14], [27]), provided by Photonic Pharma LLC. […] The observed waveforms were analyzed as described previously ([15], [28]). In total, 50 nl of each solution was dispensed in DMSO using an automated Echo 550 acoustic liquid dispenser (Labcyte). […] Plates were incubated at room temperature for 60 min before recording the data with the fluorescence lifetime plate reader. […]
*1 amine or outer side, *2 acyl side, *3 side chain or, on linkers, in order; H or OH if unused. Where a SMILES comes first, the peptide text is derived from it. Bridges are numbered along the chain shown (N, C = ends). [ ]: non-standard residue; d: D form. The star is where a group is joined. pTerphenylCO(4''-OnC5H11) = CCCCCOc1ccc(-c2ccc(-c3ccc(C(=O)*)cc3)cc2)cc1; Orn(4R-OH,5R-OH) = O=C([C@H](C[C@@H](O)[C@@H](O)N[*:3])N[*:1])[*:2]; hTyr(3S-OH,4S-OH) = N[C@H](C(=O)O)[C@H](O)[C@@H](O)c1ccc(O)cc1; Pro(3S-OH,4S-Me) = C[C@H]1CN[C@H](C(=O)O)[C@H]1O; Hyp = O=C(O)[C@@H]1C[C@@H](O)CN1
The recorded 473-nm Δτ, Repeat 1 of each item maps onto one of these classes: low end = under 0.03 ns, middle = from 0.03 ns up to 0.1 ns, high end = 0.1 ns and over

>>> discrete_label("O=C(O)c1cc(/N=N/c2ccc(O)c(C(=O)O)c2)ccc1O [Olsalazine Sodium]")
"high end"
>>> discrete_label("CC1(C)[C@@H](O[C@H]2O[C@H](C(=O)O)[C@@H](O)[C@H](O)[C@H]2O[C@@H]2O[C@H](C(=O)O)[C@@H](O)[C@H](O)[C@H]2O)CC[C@]2(C)[C@H]3C(=O)C=C4[C@@H]5C[C@@](C)(C(=O)O)CC[C@]5(C)CC[C@@]4(C)[C@]3(C)CC[C@@H]12.N.N [Diammonium glycyrrhizinate]")
"middle"
>>> discrete_label("C[C@H]1O[C@@H](O[C@H]2CC[C@@]3(C)[C@@H](CC[C@]4(C)[C@@H]3C=C[C@]35OC[C@@]6(CCC(C)(C)C[C@H]63)[C@H](O)C[C@]54C)[C@]2(C)CO)[C@H](O)[C@@H](O[C@@H]2O[C@H](CO)[C@@H](O)[C@H](O)[C@H]2O)[C@H]1O")
"low end"
>>> discrete_label("C#Cc1cccc(Nc2ncnc3cc(OCCOC)c(OCCOC)cc23)c1")
"low end"
>>> discrete_label("CC1(C)CCC(C)(C)c2cc(NC(=O)c3ccc(C(=O)O)cc3)ccc21")
"middle"
>>> discrete_label("CCCCNc1ccc(C(=O)OCCOCCOCCOCCOCCOCCOCCOCCOCCOC)cc1 [Benzonatate]")
"high end"
>>> discrete_label("CCN(CC)CCCC(C)Nc1ccnc2cc(Cl)ccc12 (stereo not shown) [Chloroquine phosphate]")
"low end"
>>> discrete_label("Oc1cccc2cccnc12 [8-Hydroxyquinoline]")
"low end"
>>> discrete_label("O=C(O)[C@H]1O[C@@H](Oc2cc3oc(-c4ccc(O)cc4)cc(=O)c3c(O)c2O)[C@H](O)[C@@H](O)[C@@H]1O")
"high end"
>>> discrete_label("CCC(=O)O[C@H]1[C@H](O[C@@H]2[C@@H](C)[C@H](O[C@H]3C[C@@](C)(OC)[C@@H](O)[C@H](C)O3)[C@@H](C)C(=O)O[C@H](CC)[C@@](C)(O)[C@H](O)[C@@H](C)C(=O)[C@H](C)C[C@@]2(C)O)O[C@H](C)C[C@@H]1N(C)C [Erythromycin estolate]")
"high end"
>>> discrete_label("Nc1ccc2cc3ccc(N)cc3nc2c1 [Proflavine hemisulfate]")
"high end"
>>> discrete_label("CO[C@@]1(NC(=O)C(C(=O)O)c2ccc(O)cc2)C(=O)N2C(C(=O)O)=C(CSc3nnnn3C)CO[C@@H]21 (stereo partly shown) [Latamoxef sodium]")
"high end"
>>> discrete_label("CCCCCOc1ccc(-c2ccc(-c3ccc(C(=O)N[C@H]4C[C@@H](O)[C@@H](O)NC(=O)[C@@H]5[C@@H](O)[C@@H](C)CN5C(=O)[C@H]([C@@H](C)O)NC(=O)[C@H]([C@H](O)[C@@H](O)c5ccc(O)cc5)NC(=O)[C@@H]5C[C@@H](O)CN5C(=O)[C@H]([C@@H](C)O)NC4=O)cc3)cc2)cc1 [Anidulafungin] ({pTerphenylCO(4''-OnC5H11)}-[Orn(4R-OH,5R-OH)]T[Hyp][hTyr(3S-OH,4S-OH)]T[Pro(3S-OH,4S-Me)]; lactam 1-C)")
"low end"

Numbers sourced from paper PMC10692721.
